Where do these numbers come from? They come from BigSolDB 2.1.

Settings: in n-butyl acetate, 291.2 K
assay.metric: solubility (mole fraction)
API note: the answer field is a bare number with no unit suffix.

Exam item: What does the record list as solubility (mole fraction) for `CC[C@H](C)C(=O)O[C@H]1C[C@@H](C)C=C2C=C[C@H](C)[C@H](CC[C@@H]3C[C@@H](O)CC(=O)O3)[C@H]21` ?
Marked response: 0.00494

----------
Conditions: in n-propyl acetate, 294.6 K
assay.metric: solubility (mole fraction)
Enter the number alone.

Exam item: Please report the recorded solubility (mole fraction) for `CC[C@H](C)C(=O)O[C@H]1C[C@@H](C)C=C2C=C[C@H](C)[C@H](CC[C@@H]3C[C@@H](O)CC(=O)O3)[C@H]21` .
Marked response: 0.00544

----------
Conditions: in methyl acetate, 312.2 K
assay.metric: solubility (mole fraction)
# output: bare number, no unit

Exam item: So what's the measured solubility (mole fraction) for this one? `CC[C@H](C)C(=O)O[C@H]1C[C@@H](C)C=C2C=C[C@H](C)[C@H](CC[C@@H]3C[C@@H](O)CC(=O)O3)[C@H]21`
Marked response: 0.00746

----------
Conditions: in sec-butyl acetate, 306.3 K
assay.metric: solubility (mole fraction)
API note: the answer field is a bare number with no unit suffix.

Exam item: Value lookup for solubility (mole fraction); key = `CC[C@H](C)C(=O)O[C@H]1C[C@@H](C)C=C2C=C[C@H](C)[C@H](CC[C@@H]3C[C@@H](O)CC(=O)O3)[C@H]21`
Marked response: 0.00745

----------
Conditions: in sec-butyl acetate, 300.3 K
assay.metric: solubility (mole fraction)
Give the value as a plain number.

Exam item: So what does the record say about solubility (mole fraction) for `CC[C@H](C)C(=O)O[C@H]1C[C@@H](C)C=C2C=C[C@H](C)[C@H](CC[C@@H]3C[C@@H](O)CC(=O)O3)[C@H]21` ?
Marked response: 0.00606

----------
Details: in n-butyl acetate, 288.3 K
assay.metric: solubility (mole fraction)
Write the value as a bare number.

Exam item: Would you kindly share the measured solubility (mole fraction) for `CC[C@H](C)C(=O)O[C@H]1C[C@@H](C)C=C2C=C[C@H](C)[C@H](CC[C@@H]3C[C@@H](O)CC(=O)O3)[C@H]21` ?
Marked response: 0.00452

----------
Conditions: in isobutyl acetate, 309.4 K
assay.metric: solubility (mole fraction)
Please reply with the number alone, leaving off any unit.

Exam item: Given the compound `CC[C@H](C)C(=O)O[C@H]1C[C@@H](C)C=C2C=C[C@H](C)[C@H](CC[C@@H]3C[C@@H](O)CC(=O)O3)[C@H]21` , what is its reported solubility (mole fraction)?
Marked response: 0.00777

----------
Settings: in sec-butyl acetate, 288.3 K
assay.metric: solubility (mole fraction)
Give the value as a plain number.

Exam item: I am curious: what solubility (mole fraction) value has been reported for `CC[C@H](C)C(=O)O[C@H]1C[C@@H](C)C=C2C=C[C@H](C)[C@H](CC[C@@H]3C[C@@H](O)CC(=O)O3)[C@H]21` ?
Marked response: 0.00401

----------
Settings: in acetone, 294.6 K
assay.metric: solubility (mole fraction)
Returns: the value as a bare number; no unit string appended.

Exam item: Need solubility (mole fraction) of `CC[C@H](C)C(=O)O[C@H]1C[C@@H](C)C=C2C=C[C@H](C)[C@H](CC[C@@H]3C[C@@H](O)CC(=O)O3)[C@H]21` , thanks.
Marked response: 0.0118

----------
Conditions: in acetone, 291.2 K
assay.metric: solubility (mole fraction)
Number, no unit, nothing else.

Exam item: // solubility (mole fraction) lookup, key: `CC[C@H](C)C(=O)O[C@H]1C[C@@H](C)C=C2C=C[C@H](C)[C@H](CC[C@@H]3C[C@@H](O)CC(=O)O3)[C@H]21`
Marked response: 0.0104

----------
Conditions: in ethyl acetate, 300.3 K
assay.metric: solubility (mole fraction)
// print number alone

Exam item: Looking for the measured solubility (mole fraction) of `CC[C@H](C)C(=O)O[C@H]1C[C@@H](C)C=C2C=C[C@H](C)[C@H](CC[C@@H]3C[C@@H](O)CC(=O)O3)[C@H]21` , can you help?
Marked response: 0.00706

----------
Conditions: in ethyl acetate, 297.2 K
assay.metric: solubility (mole fraction)
Respond numerically, and do not add a unit to the figure.

Exam item: Fill blank: measured solubility (mole fraction) of the compound `CC[C@H](C)C(=O)O[C@H]1C[C@@H](C)C=C2C=C[C@H](C)[C@H](CC[C@@H]3C[C@@H](O)CC(=O)O3)[C@H]21` is ____.
Marked response: 0.00656

----------
Details: in sec-butyl acetate, 294.6 K
assay.metric: solubility (mole fraction)

Exam item: Any idea what solubility (mole fraction) was measured for `CC[C@H](C)C(=O)O[C@H]1C[C@@H](C)C=C2C=C[C@H](C)[C@H](CC[C@@H]3C[C@@H](O)CC(=O)O3)[C@H]21` ?
Marked response: 0.005

----------
Conditions: in n-butyl acetate, 297.2 K
assay.metric: solubility (mole fraction)

Exam item: Item `CC[C@H](C)C(=O)O[C@H]1C[C@@H](C)C=C2C=C[C@H](C)[C@H](CC[C@@H]3C[C@@H](O)CC(=O)O3)[C@H]21` has what recorded solubility (mole fraction)?
Marked response: 0.00611

----------
Settings: in isobutyl acetate, 285.1 K
assay.metric: solubility (mole fraction)
Reply briefly: the number, and no unit.

Exam item: Bench note: what solubility (mole fraction) did `CC[C@H](C)C(=O)O[C@H]1C[C@@H](C)C=C2C=C[C@H](C)[C@H](CC[C@@H]3C[C@@H](O)CC(=O)O3)[C@H]21` show?
Marked response: 0.00345

----------
Details: in ethyl acetate, 309.4 K
assay.metric: solubility (mole fraction)
Give a plain numeric answer without units written out.

Exam item: Find the recorded solubility (mole fraction) belonging to `CC[C@H](C)C(=O)O[C@H]1C[C@@H](C)C=C2C=C[C@H](C)[C@H](CC[C@@H]3C[C@@H](O)CC(=O)O3)[C@H]21` and report it.
Marked response: 0.00967

----------
Conditions: in tert-butyl acetate, 303.1 K
assay.metric: solubility (mole fraction)
// return a plain number; no unit text

Exam item: Bench note: what solubility (mole fraction) did `CC[C@H](C)C(=O)O[C@H]1C[C@@H](C)C=C2C=C[C@H](C)[C@H](CC[C@@H]3C[C@@H](O)CC(=O)O3)[C@H]21` show?
Marked response: 0.0051

----------
Conditions: in isopropyl acetate, 294.6 K
assay.metric: solubility (mole fraction)
Answer as a number with no unit attached.

Exam item: Recorded solubility (mole fraction) of `CC[C@H](C)C(=O)O[C@H]1C[C@@H](C)C=C2C=C[C@H](C)[C@H](CC[C@@H]3C[C@@H](O)CC(=O)O3)[C@H]21` , please.
Marked response: 0.00459

----------
Settings: in ethyl acetate, 312.2 K
assay.metric: solubility (mole fraction)
Please respond with just the number, no unit label.

Exam item: Entry `CC[C@H](C)C(=O)O[C@H]1C[C@@H](C)C=C2C=C[C@H](C)[C@H](CC[C@@H]3C[C@@H](O)CC(=O)O3)[C@H]21` has what solubility (mole fraction)?
Marked response: 0.0108

----------
Details: in isopropyl acetate, 297.2 K
assay.metric: solubility (mole fraction)
Lab note: jot the number down without any unit.

Exam item: For `CC[C@H](C)C(=O)O[C@H]1C[C@@H](C)C=C2C=C[C@H](C)[C@H](CC[C@@H]3C[C@@H](O)CC(=O)O3)[C@H]21` , what is its reported solubility (mole fraction)?
Marked response: 0.00497

----------
Conditions: in isopropyl acetate, 291.2 K
assay.metric: solubility (mole fraction)
Lab note: record the figure alone, no unit after it.

Exam item: Please look up its solubility (mole fraction): `CC[C@H](C)C(=O)O[C@H]1C[C@@H](C)C=C2C=C[C@H](C)[C@H](CC[C@@H]3C[C@@H](O)CC(=O)O3)[C@H]21`
Marked response: 0.00412

----------
Settings: in sec-butyl acetate, 297.2 K
assay.metric: solubility (mole fraction)
Lab note: record just the number, no unit beside it.

Exam item: Any idea what solubility (mole fraction) was measured for `CC[C@H](C)C(=O)O[C@H]1C[C@@H](C)C=C2C=C[C@H](C)[C@H](CC[C@@H]3C[C@@H](O)CC(=O)O3)[C@H]21` ?
Marked response: 0.00545

----------
Settings: in isobutyl acetate, 288.3 K
assay.metric: solubility (mole fraction)
Just the number, please, no unit attached.

Exam item: What solubility (mole fraction) value was documented for this compound, `CC[C@H](C)C(=O)O[C@H]1C[C@@H](C)C=C2C=C[C@H](C)[C@H](CC[C@@H]3C[C@@H](O)CC(=O)O3)[C@H]21` ?
Marked response: 0.00383

----------
Conditions: in tert-butyl acetate, 306.3 K
assay.metric: solubility (mole fraction)
No unit in the answer, only the number.

Exam item: Which solubility (mole fraction) reading was recorded for the compound `CC[C@H](C)C(=O)O[C@H]1C[C@@H](C)C=C2C=C[C@H](C)[C@H](CC[C@@H]3C[C@@H](O)CC(=O)O3)[C@H]21` ?
Marked response: 0.00569
